# tested-target: UniProtKB P05177
# Sequence (P05177 1-516): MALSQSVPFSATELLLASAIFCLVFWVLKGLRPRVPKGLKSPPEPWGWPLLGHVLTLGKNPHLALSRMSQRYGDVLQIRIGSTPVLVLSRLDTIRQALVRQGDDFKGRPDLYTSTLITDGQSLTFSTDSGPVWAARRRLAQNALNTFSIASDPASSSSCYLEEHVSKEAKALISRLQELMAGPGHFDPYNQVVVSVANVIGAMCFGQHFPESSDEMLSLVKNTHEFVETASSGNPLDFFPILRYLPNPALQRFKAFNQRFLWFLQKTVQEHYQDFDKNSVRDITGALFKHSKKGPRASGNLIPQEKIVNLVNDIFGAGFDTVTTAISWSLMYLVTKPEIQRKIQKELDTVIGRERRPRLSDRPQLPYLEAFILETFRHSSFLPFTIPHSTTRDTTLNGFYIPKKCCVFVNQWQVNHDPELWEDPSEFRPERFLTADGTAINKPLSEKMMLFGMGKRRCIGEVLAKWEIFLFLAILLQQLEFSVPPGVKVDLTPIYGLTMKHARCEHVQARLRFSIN
reported-metric: IC50

# return recorded IC50 for input Cc1ccc(-c2c([C@H](OC(C)(C)C)C(=O)O)c(C)c3c4c2cc(-c2ccnc(-c5ccc6c(cnn6C)c5)c2)n4CCN3CCN(C)C)cc1 [Compound I-034]
> 20 µM

====

# assay-protocol: Powder Solubility Test
# Format: physicochemical
# condition-notes: pH 6.8, fassgf or other biorelevant, thermodynamic from solid; 20 mmol/L TCA (sodium taurocholate)/JP-2 fluid, shaken 1 hour at 37° C.; read-out: powder solubility, 20 mmol/L TCA/JP-2 fluid
# Method: Appropriate amounts of the test substances are put into appropriate containers. To the respective containers are added 200 μL of JP-1 fluid (sodium chloride 2.0 g, hydrochloric acid 7.0 mL and water to reach 1000 mL), 200 μL of JP-2 fluid (phosphate buffer (pH 6.8) 500 mL and water 500 mL), and 200 μL of 20 mmol/L TCA (sodium taurocholate)/JP-2 fluid (TCA 1.08 g and JP-2 fluid to reach 100 μL). […] Quantification is performed by HPLC with an absolute calibration method.
reported-metric: solubility at 1 h

Output solubility at 1 h of Cc1ccc(-c2c([C@H](OC(C)(C)C)C(=O)O)c(C)c3c4c2cc(-c2ccnc(-c5ccc6c(cnn6C)c5)c2)n4CCN3CCN(C)C)cc1 [Compound I-034]
> 1000 µg/mL
